- study system: Glucose transporter (Leishmania mexicana)
- test details: ST_JUDE_LEISH: Cytotoxicity at 2uM final concentration against transgenic Leishmania Mexicana promastigotes LmGT2 that are glucose transport deficient and complemented with the L. Mexicana glucose transporter 2. Activity is measured by DNA content using SYBR green in vitro
- Assay type: functional
# maps each entry to its inhibition
Give the number; % is assumed, so skip it.

// worked examples, inhibition included
smiles notation | endpoint unit | inhibition
Fc1ccc(-c2oc(C3CCN(CCc4ccc(-c5noc(=S)[nH]5)cc4)CC3)nc2COCC(F)(F)F)cc1 | % | 8.14
Oc1ccc(CN2Cc3ccccc3OC3(CCN(Cc4c[nH]c5cnccc45)CC3)C2)cc1 | % | -3.09
COc1ccc(-c2nc(NC(=O)Cc3cccc(OC)c3)sc2C)cc1 | % | 3.16
CN(C)CCOc1cc(NC(=O)Nc2cccc3c(-c4ccncc4)cccc23)ccc1I | % | 4.12
CON(C)C(=O)[C@@H](CCCCNC(=O)OCc1ccccc1)NC(=O)OC(C)(C)C | % | -1.83

// field: inhibition; key: "COCc1cc(C)nc2sc(C(=O)Nc3cc(C(C)(C)C)ccc3O)c(N)c12" ; value = -0.92

###

- study system: Glucose transporter (Leishmania mexicana)
- test details: ST_JUDE_LEISH: Cytotoxicity at 2uM final concentration against transgenic Leishmania Mexicana promastigotes LmGT2 that are glucose transport deficient and complemented with the L. Mexicana glucose transporter 2. Activity is measured by DNA content using SYBR green in vitro
- Format: functional
// inhibition lookup, one value per entry
Provide the reading as a plain figure in %.

Look over these answered cases.
compound | endpoint unit | inhibition
OC(CNCCCCCCNCC(O)c1ccc(Cl)c(Cl)c1)c1ccc(Cl)c(Cl)c1 (centres undefined) | % | 3.55
Cc1c(CN2CCC(N3CCC(C(=O)NC4CC4)CC3)CC2)[nH]c2c(Cl)cccc12 | % | 9.75
Cc1cc(N/N=C/c2cccc([N+](=O)[O-])c2)c2ccccc2n1 | % | 4.98

Reported inhibition ( "O=C(NCCCCN1CCC(c2ccc3c(c2OCCO)CCCC3)CC1)c1sc(-c2ccc(C(F)(F)F)cc2)nc1CO" ) = 3.21

Record summary for "O=C(NC1CCN(Cc2ccc(F)cc2)CC1)c1ccc(-c2cccc(C(F)(F)F)c2)s1" : reported inhibition = 1.44

inhibition reported for this compound "CC1CCN(CC[C@H]2CCCN2S(=O)(=O)c2cccc(NC(=O)c3cc4ccccc4s3)c2)CC1" : 3.15

So for CCOC(=O)C(C#N)NC(=O)C=Cc1ccccc1 (centres undefined) , the logged inhibition turned out to be 5.14

Item: "COc1ccc2nccc([C@@H](O)CN3CCC(NC(=O)Cc4cccc5c(Br)cccc45)CC3)c2c1" | inhibition: 10.9

Briefly, inhibition measured for "COc1cc(NC(=O)Nc2ccc(Br)cc2C(=O)Nc2ccc(Br)cc2)cc(OC)c1OC" : 5.3

###

- study system: Solute carrier family 2, facilitated glucose transporter member 1 (Homo sapiens)
- test details: ST_JUDE_LEISH: Cytotoxicity at 2uM final concentration against transgenic Leishmania Mexicana promastigotes LmGLUT1 that are glucose transport deficient and complemented with the human glucose transporter GLUT1. Activity is measured by DNA content using SYBR green in vitro
- Assay type: functional
measurement type: inhibition (%)
Return type: number; implicit unit %.

Example molecules with recorded inhibition:
molecule | inhibition, %
Cc1cc2c(cc1C(F)(F)F)N(C(=O)Nc1cc(OCCN(C)C)cc(C(F)(F)F)c1)CC2 | -0.72
CC(C)(C)CNc1noc(-c2sccc2Br)n1 | -0.27
Cc1cc(Nc2ccnc(-c3ccc(Cl)cc3)n2)ccn1 | 7.95
Cc1nc2nc(N)nc(N)c2c(C)c1Cc1cccc(C(N)=O)c1 | 1.17
COc1ccc(CNCc2ccccc2)cc1-c1cccc(S(=O)(=O)NCCN2CCCC2)c1 | 1.03

Record "Cc1[nH]c(C)c(-c2ccc(OCCCCSc3ccncc3)cc2)c(=O)c1Br" , field inhibition: 8.71

The molecule listed as "CCCCN(Cc1cccc(C(F)(F)F)c1Cl)c1ccc(C(O)(C(F)(F)F)C(F)(F)F)cc1" shows inhibition equal to 7.39

###

- study system: Glucose transporter (Leishmania mexicana)
- test details: ST_JUDE_LEISH: Cytotoxicity at 2uM final concentration against transgenic Leishmania Mexicana promastigotes LmGT2 that are glucose transport deficient and complemented with the L. Mexicana glucose transporter 2. Activity is measured by DNA content using SYBR green in vitro
- Format: functional
measurement type: inhibition
Write the numeric value and append its unit.

molecule | study system | readout value
CCCc1cn2c3c(cc(C(=O)N[C@@H](Cc4ccccc4)[C@H](O)CNC4CCCCC4)cc13)N(C)S(=O)(=O)CC2 | Glucose transporter (Leishmania mexicana) | 1.49%
COc1cccc(NC(=O)Cn2c(C)c(C#N)c3ccccc32)c1 | Glucose transporter (Leishmania mexicana) | 3.36%

// "Cc1cc(-c2ccnc(Nc3cccc(C#N)c3)n2)cc(C)c1O" : inhibition value = 7.83%

Kindly note the recorded inhibition for "COc1cc2nc(NCCCN3CCCCC3)nc(NCc3ccccc3)c2cc1OC" , which is -0.35%

inhibition recorded for this molecule, "O=C(N[C@@H](Cc1ccccc1)[C@H](O)CNCCC(F)(F)F)c1cccc(CCC2CC2)c1" , is 2.39%

###

- study system: Glucose transporter (Leishmania mexicana)
- test details: ST_JUDE_LEISH: Cytotoxicity at 2uM final concentration against transgenic Leishmania Mexicana promastigotes LmGT2 that are glucose transport deficient and complemented with the L. Mexicana glucose transporter 2. Activity is measured by DNA content using SYBR green in vitro
- Format: functional
Consider the following molecules and their measured inhibition readings.
Unit % implied. Number only.

Example entries begin here.
molecule | measurement type | endpoint unit | readout value
CC(C)CNCc1cccc(-c2ccc(CN(C(=O)NCCc3ccccc3)C3CCN(Cc4ccccc4)CC3)cc2)c1 | inhibition | % | 56.8
CN(Cc1ccc(C#N)cc1)C1CCN(c2cc(NC(=O)c3ccc(F)cc3)ccn2)CC1 | inhibition | % | -1.93
Cc1ccccc1NC(=O)C1CSCN1C(=O)OCc1ccccc1 (centres undefined) | inhibition | % | -0.28
Cc1nc2c(s1)c(=O)cc(CCc1cccc(F)c1F)n2CC(=O)N(Cc1ccc(-c2ccc(C(F)(F)F)cc2)cc1)C1CCN(C(C)C)CC1 | inhibition | % | 1.78
COc1cccc2cc(C(=O)N[C@@H](CC(C)C)C(=O)N[C@H](/C=N/N(C)C(=O)OC(C)(C)C)CC(=O)OC(C)(C)C)oc12 | inhibition | % | 3.79

Query CCOC(=O)c1ccc(NC(=O)NC2CCN(CCCCCNC(=O)/C=C/c3ccc(Cl)c(Cl)c3)C2)cc1 (centres undefined) yields inhibition of 0.92

Notebook: "CC(C)(CNC(=O)/C=C/c1ccc(Cl)c(Cl)c1)CNc1cc(=O)c2ccccc2[nH]1" , inhibition read as -2.49

For record "O=C1NC(=S)N/C1=C/C=C/c1ccc([N+](=O)[O-])o1" the listed inhibition is 5.12

For reference, reported inhibition for "Cc1ccc(O)cc1Nc1ccnc2cc(-c3ccc(CN4CCCCC4)o3)ccc12" stands at 13.8

###

- study system: Glucose transporter (Leishmania mexicana) (UniProt O61059)
- test details: ST_JUDE_LEISH: Cytotoxicity at 2uM final concentration against transgenic Leishmania Mexicana promastigotes LmGT2 that are glucose transport deficient and complemented with the L. Mexicana glucose transporter 2. Activity is measured by DNA content using SYBR green in vitro
- Type: functional
measurement type: inhibition (%)
Give a bare numeral; the unit % is implied.

Here's what some known entries look like.
compound | study system | inhibition (%)
O=C(NCc1cccc(C(F)(F)F)c1)C1CCCN(C(=O)c2ccc(O)c(-c3ccc(Cl)c(Cl)c3)c2)C1 (stereo unspecified) | Glucose transporter (Leishmania mexicana) (UniProt O61059) | 3.95
CC(C)C1c2ccc(O)cc2CC2C(=O)N(C3CCCCC3)C(=O)N21 (stereo unspecified) | Glucose transporter (Leishmania mexicana) (UniProt O61059) | -0.94
CCOc1ccc2c(=NN=Cc3cccc(Cl)c3)cc(C)[nH]c2c1 | Glucose transporter (Leishmania mexicana) (UniProt O61059) | 16

Item: "CC(C)NCc1cccc(-c2ccc(-c3nc4ccccc4[nH]3)cc2)c1" | System: Glucose transporter (Leishmania mexicana) (UniProt O61059) | inhibition: 0.41

# inhibition measured on Glucose transporter (Leishmania mexicana) (UniProt O61059) for item "Cc1cc(O)c(CNC2CCCCC2)cc1C" = 2.92

The reported inhibition value, Glucose transporter (Leishmania mexicana) (UniProt O61059), for "COCc1ccccc1C(=O)NCCOc1cc(C)cc(C)c1" reads -0.46

I looked up "CO/C(=C\C=C\c1cc2cc(Cl)c(Cl)cc2[nH]1)C(=O)NCCCN1CCCC[C@H]1C" and its inhibition for Glucose transporter (Leishmania mexicana) (UniProt O61059) was 1.43

Form field inhibition for item "CCCCCCc1cnc2nc(N)nc(N)c2c1C" on Glucose transporter (Leishmania mexicana) (UniProt O61059): 10.3

# value of inhibition, Glucose transporter (Leishmania mexicana) (UniProt O61059), item "N=C(N)NN=CC(=O)Nc1cc([N+](=O)[O-])cc([N+](=O)[O-])c1" = 6.66
